B1: WSB1 (parent)
chain: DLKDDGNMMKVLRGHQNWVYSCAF

# Variants of: B1
# Test details: protein stability index of a GFP-peptide fusion (GPS, HEK-293T) (PSI 1-6); higher = more stable;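 also: lentivirally expressed fusions sorted by FACS into six bins by GFP to DsRed ratio, PSI derived from sequencing read proportions per bin multiplied by bin number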
# Measurement parameters: c terminus: a fixed tail appended
Exercise: state measured protein stability index for each of the variants provided.
Output: the number by itself.

For the variant "C22G" , give its measured protein stability index value.
1.69

For the variant "W18Y" , give its measured protein stability index value.
2.09

For the variant "G14A" , give its measured protein stability index value.
1.33

For the variant "F24L" , give its measured protein stability index value.
3.07

For the variant "D5Y" , give its measured protein stability index value.
2.25

For the variant "D4N" , give its measured protein stability index value.
3.38

For the variant "G14D" , give its measured protein stability index value.
1.91

For the variant "V19F" , give its measured protein stability index value.
1.34

For the variant "R13D" , give its measured protein stability index value.
1.32

For the variant "D5F" , give its measured protein stability index value.
3.73

For the variant "Q16L" , give its measured protein stability index value.
1.48

For the variant "Y20Q" , give its measured protein stability index value.
1.68

For the variant "G14S" , give its measured protein stability index value.
2

For the variant "G14R" , give its measured protein stability index value.
1.29

For the variant "L12H" , give its measured protein stability index value.
1.44

For the variant "S21R" , give its measured protein stability index value.
1.22

For the variant "R13K" , give its measured protein stability index value.
1.58

For the variant "G14N" , give its measured protein stability index value.
1.26

For the variant "K3Q" , give its measured protein stability index value.
1.37

For the variant "D1Q" , give its measured protein stability index value.
1.38

For the variant "F24M" , give its measured protein stability index value.
2.27

For the variant "C22E" , give its measured protein stability index value.
2.39

For the variant "M8W" , give its measured protein stability index value.
1.09

For the variant "W18E" , give its measured protein stability index value.
2.62

For the variant "D5Q" , give its measured protein stability index value.
2

For the variant "K3G" , give its measured protein stability index value.
2.54

For the variant "F24Y" , give its measured protein stability index value.
2.38

For the variant "K10D" , give its measured protein stability index value.
1.72

For the variant "C22R" , give its measured protein stability index value.
2.33

For the variant "V11F" , give its measured protein stability index value.
2.64

For the variant "K10P" , give its measured protein stability index value.
2.27

For the variant "D5K" , give its measured protein stability index value.
1.69

For the variant "F24D" , give its measured protein stability index value.
3.3

For the variant "V19G" , give its measured protein stability index value.
2.66

For the variant "K10R" , give its measured protein stability index value.
2.4

For the variant "L2D" , give its measured protein stability index value.
2.39

For the variant "V11I" , give its measured protein stability index value.
1.59

For the variant "K10I" , give its measured protein stability index value.
2.34

For the variant "D1F" , give its measured protein stability index value.
2.47

For the variant "D1L" , give its measured protein stability index value.
2.52

For the variant "M9F" , give its measured protein stability index value.
2.67

For the variant "N17P" , give its measured protein stability index value.
1.86

For the variant "D4G" , give its measured protein stability index value.
1.16

For the variant "D5A" , give its measured protein stability index value.
2.66

For the variant "L12C" , give its measured protein stability index value.
2.38

For the variant "V19S" , give its measured protein stability index value.
1.04
